- assay_target: 5-HT2B receptor (Homo sapiens)
- Sequence (P41595 whole entry): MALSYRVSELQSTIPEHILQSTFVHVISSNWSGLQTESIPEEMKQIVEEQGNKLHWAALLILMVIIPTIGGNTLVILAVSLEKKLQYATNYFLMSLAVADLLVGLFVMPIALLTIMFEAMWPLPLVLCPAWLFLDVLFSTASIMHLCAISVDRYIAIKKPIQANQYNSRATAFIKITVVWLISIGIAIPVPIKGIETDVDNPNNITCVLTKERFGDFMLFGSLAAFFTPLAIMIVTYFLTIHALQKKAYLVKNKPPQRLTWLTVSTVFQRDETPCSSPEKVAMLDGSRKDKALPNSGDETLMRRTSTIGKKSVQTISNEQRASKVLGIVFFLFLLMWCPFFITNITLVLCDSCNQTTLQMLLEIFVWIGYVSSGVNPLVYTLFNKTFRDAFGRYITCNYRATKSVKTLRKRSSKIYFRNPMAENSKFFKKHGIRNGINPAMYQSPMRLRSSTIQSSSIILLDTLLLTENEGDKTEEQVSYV
- method: 5-HT2B binding affinity, human recombinant-CHO cells, 5-HT as control (Bonhaus)
- reported_conditions: Table 1; agonist 5-HT2B receptor
observable: pIC50
One number for each entry, as −log10 of the molar value.

Data request: Reported pIC50, compound CCOC(=O)C1=C(C)NC(C)=C(C(=O)OC)C1c1cccc(Cl)c1Cl (centres unmarked) : ____
Data returned: 5.89
